molecular target: (EWS-ZF)x2 (Homo sapiens, UniProt Q01844-5 523-555); assay: ITC; ITC: 50 mM Tris pH 7.5, 150 mM NaCl, 1 mM DTT, 0.1 mM ZnCl2, 25 °C; BLI: 50 mM Tris pH 7.5, 150 mM NaCl, 1 mM DTT, 0.1% BSA, 0.02% Tween, 30 °C; conditions: protein: recombinant; tags: GST cleaved (HRV-3C)
Sequence (Q01844 518-550): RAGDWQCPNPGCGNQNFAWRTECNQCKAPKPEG
Assay Endpoint: Kd
Put your answer as a value accompanied by its unit after it.

Let me know recorded Kd for AAAGGUGGUAAA (ssRNA) [(GGU)x2] , thanks. 200 nM
